Target: SARS-CoV-2 spike on pseudovirus or live virus (USA-WA1/2020, WT) (SARS-CoV-2, UniProt P0DTC2 14-1273)
Test: cell-based or functional assay
OBSERVABLE: Maximum Plateau of Neutralization (%)
I only need the number, in %, no unit after it.

{"BINDER": "L12.bP10G07 (antibody, V domains shown, human IgG1) VH: EVQLVQSGAEVKKPGASVKVSCKASGYIYSGYYMHWVRQAPGQGLEWMGWISPDSGGTNYAQRFQGRVTMTRDTSTTTAYMELSRLRSDDTAMYYCARGPRYSGTYFDYWGQGTLVTVSS VL: QTVVTQPASVSGSPGQSITISCTGTSSDVGGYNYVSWYQQHPDKAPKLIIYDVSNRPSGVSNRFSGSKSGNTASLTISGLQAEDEAAYYCSSYTSSSTQVFGGGTKLTVL", "Maximum Plateau of Neutralization / %": 100}

Input line: Given the binder L12.bP12E05 (antibody, V domains shown, human IgG1) VH: EVQLVQSGAEVKKPGASVKVTCKTSGYIFSGYYMHWVRQVPGQGLEWMGWISPDSGATNYAQKFQGRVTMTRDTSITTSYVELTWLKSDDTAVYYCARGPRYSGTYFDFWGQGTLVTVSS VL: QAVVTQPASVSGSPGQSLTISCTGTSSDIGGFNYVSWYQQHPGKAPKLMIFDVSKRPSGVPNRFSGSKSGNTASLTISGLQAEDEGDYYCSSYTISSAQVFGGGTKLTVL , what is its reported Maximum Plateau of Neutralization?
Output line: 89

Input line: Likewise for L6.dP02F01 (antibody, V domains shown, human IgG1) VH: EVQLVESGGGLVQPGRSLRLSCAASGFTFDDYAMHWVRQAPGKGLEWVSGISWNSGSIAFAGSVKGRFTISRDNAKNSLYLQMNSLRAEDTALYYCAKDQGYSYGNYFDYWGQGTLVTVSS VL: QLVLTQPPSVSVAPGKTARITCGGNNIGSKSVYWYQQKPGQAPVLVVYDDSDRPSGIPERFSGSNSGNTATLTISRVEAGDEADYYCQVWDSSSDHPYVFGSGTKVTVL ?
Output line: 99

Data origin: patent US20230357364A1
